- target: T1, EsCas13d, nuclease-dead (Eubacterium siraeum, UniProt B0MS50, R295A;H300A;R849A;H854A)
- T1 sequence: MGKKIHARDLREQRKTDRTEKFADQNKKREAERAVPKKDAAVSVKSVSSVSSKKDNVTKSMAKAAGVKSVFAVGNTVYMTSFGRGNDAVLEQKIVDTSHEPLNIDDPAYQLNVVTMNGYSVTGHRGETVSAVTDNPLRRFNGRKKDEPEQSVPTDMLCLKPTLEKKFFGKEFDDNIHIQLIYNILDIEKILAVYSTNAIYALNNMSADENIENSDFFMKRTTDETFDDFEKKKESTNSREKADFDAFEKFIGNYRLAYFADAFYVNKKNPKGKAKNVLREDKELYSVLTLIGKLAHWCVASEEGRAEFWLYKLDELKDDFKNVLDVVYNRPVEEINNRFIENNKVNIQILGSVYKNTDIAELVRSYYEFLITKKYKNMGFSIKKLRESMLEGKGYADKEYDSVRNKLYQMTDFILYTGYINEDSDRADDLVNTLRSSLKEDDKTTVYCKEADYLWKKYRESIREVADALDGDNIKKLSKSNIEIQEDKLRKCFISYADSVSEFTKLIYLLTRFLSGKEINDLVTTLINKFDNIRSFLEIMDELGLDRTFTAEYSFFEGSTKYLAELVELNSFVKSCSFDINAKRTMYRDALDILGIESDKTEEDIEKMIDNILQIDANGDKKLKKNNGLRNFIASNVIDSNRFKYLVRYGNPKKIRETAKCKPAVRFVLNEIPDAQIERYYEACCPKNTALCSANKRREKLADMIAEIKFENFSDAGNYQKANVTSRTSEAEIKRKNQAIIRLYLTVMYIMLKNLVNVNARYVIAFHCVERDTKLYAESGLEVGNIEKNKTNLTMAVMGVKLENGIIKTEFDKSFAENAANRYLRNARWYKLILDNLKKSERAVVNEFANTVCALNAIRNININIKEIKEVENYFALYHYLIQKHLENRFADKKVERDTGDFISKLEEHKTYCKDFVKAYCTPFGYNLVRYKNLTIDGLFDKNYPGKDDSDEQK
- assayName: crRNA (strand 1, pre-loaded); Mg2+; 40 mM Tris-HCl pH 7.5, 150 mM NaCl, 6 mM MgCl2, 1 mM DTT, 0.1% Tween-20, 0.2 mg/ml BSA; 25 C; 10 min per concentration, then washed
- statedConditions: tags: His6-TwinStrep-SUMO cleaved; N-terminal SNAP kept (SNAP-Surface 488); label: 3' end held by stalled T7 RNA polymerase
Measured pKd, listed per entry.
For clarity, pKd is expressed as the negative log10 of concentration in mol/L.

// known answers, use as guide
target 2 MT 5'PFS UAG 3'PFS AGA (mixed) RNA 1: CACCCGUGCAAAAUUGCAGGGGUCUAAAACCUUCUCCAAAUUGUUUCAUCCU RNA 2: GGGAAUGGAUCCACAUCUACGAAUUCUAGAGGAUGAAACAAUUUGGAGAAGAGAAGAUCGGAAGAGCACACGU :: 8.60
target 1 C7U,U19A (mixed) RNA 1: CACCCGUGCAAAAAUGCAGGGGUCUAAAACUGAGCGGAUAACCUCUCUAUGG RNA 2: GGGAAUGGAUCCACAUCUACGAAUUCGUACCAAAGAGAGGUUAUUCGCUCACCGAGAUCGGAAGAGCACACGU :: 7.47
target 1 C7U,G15C (mixed) RNA 1: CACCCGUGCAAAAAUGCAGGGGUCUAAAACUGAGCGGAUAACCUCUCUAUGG RNA 2: GGGAAUGGAUCCACAUCUACGAAUUCGUACCAUAGACAGGUUAUUCGCUCACCGAGAUCGGAAGAGCACACGU :: 7.32

# input Param item = target 1 U10A,U11G (mixed) RNA 1: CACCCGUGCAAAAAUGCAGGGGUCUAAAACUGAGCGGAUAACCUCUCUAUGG RNA 2: GGGAAUGGAUCCACAUCUACGAAUUCGUACCAUAGAGAGGGAAUCCGCUCACCGAGAUCGGAAGAGCACACGU ; retrieve measured pKd.
# output 7.94

# input Param item = target 1 insA 3' of 17,insA 3' of 2 (mixed) RNA 1: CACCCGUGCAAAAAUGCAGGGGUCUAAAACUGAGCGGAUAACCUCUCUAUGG RNA 2: GGGAAUGGAUCCACAUCUACGAAUUCGUACCAUAGAAGAGGUUAUCCGCUCAACCGAGAUCGGAAGAGCACACGU ; retrieve measured pKd.
# output 7.86

# input Param item = target 1 MT 5'PFS UUA 3'PFS UCG (mixed) RNA 1: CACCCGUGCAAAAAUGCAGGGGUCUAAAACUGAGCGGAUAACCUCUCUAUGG RNA 2: GGGAAUGGAUCCACAUCUACGAAUUCUUACCAUAGAGAGGUUAUCCGCUCAUCGAGAUCGGAAGAGCACACGU ; retrieve measured pKd.
# output 7.87

# input Param item = target 1 G17U,C22U (mixed) RNA 1: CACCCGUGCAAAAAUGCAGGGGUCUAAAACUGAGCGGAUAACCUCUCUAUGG RNA 2: GGGAAUGGAUCCACAUCUACGAAUUCGUAUCAUAUAGAGGUUAUCCGCUCACCGAGAUCGGAAGAGCACACGU ; retrieve measured pKd.
# output 7.49

# input Param item = target 1 insC 3' of 8,insG 3' of 1 (mixed) RNA 1: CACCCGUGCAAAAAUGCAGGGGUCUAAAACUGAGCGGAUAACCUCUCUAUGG RNA 2: GGGAAUGGAUCCACAUCUACGAAUUCGUACCAUAGAGAGGUUAUCCCGCUCAGCCGAGAUCGGAAGAGCACACGU ; retrieve measured pKd.
# output 7.84

# input Param item = target 2 MT 5'PFS CUA 3'PFS UAG (mixed) RNA 1: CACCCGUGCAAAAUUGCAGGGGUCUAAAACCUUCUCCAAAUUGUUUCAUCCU RNA 2: GGGAAUGGAUCCACAUCUACGAAUUCCUAAGGAUGAAACAAUUUGGAGAAGUAGAGAUCGGAAGAGCACACGU ; retrieve measured pKd.
# output 8.72

# input Param item = target 1 insA 3' of 2,insA 3' of 2 (mixed) RNA 1: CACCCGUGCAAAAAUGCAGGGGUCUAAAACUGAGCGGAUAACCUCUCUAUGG RNA 2: GGGAAUGGAUCCACAUCUACGAAUUCGUACCAUAGAGAGGUUAUCCGCUCAAACCGAGAUCGGAAGAGCACACGU ; retrieve measured pKd.
# output 8.02

# input Param item = target 3 insC 3' of 18,insA 3' of 17 (mixed) RNA 1: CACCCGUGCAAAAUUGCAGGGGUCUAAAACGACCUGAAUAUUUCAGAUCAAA RNA 2: GGGAAUGGAUCCACAUCUACGAAUUCGUUUUUGACUACUGAAAUAUUCAGGUCUGCAGAUCGGAAGAGCACACGU ; retrieve measured pKd.
# output 7.46

Where do these numbers come from? They come from paper PMC10786891.
